- Species on record: Rattus norvegicus
- methodSummary: Open TG-GATES - Regimen: Daily Repeat
- Format: toxicity, organism-based, Sprague-Dawley
- Set-up: regimen Daily Repeat, gender Male, age 6 weeks
- measurementContext: in vivo, po, 0 mg/kg, […], route gavage, dose level Control, time 28 day

compound | TERMINAL_BW [g]
O=NN(CCCl)C(=O)NC1CCCCC1 | 379.6
CC(C)N(CCC(C(N)=O)(c1ccccc1)c1ccccn1)C(C)C (stereo not given) [DISOPYRAMIDE] | 406.5
CC[C@H]1[C@@H]2C[C@H]3[C@@H]4N(C)c5ccccc5[C@]45C[C@@H]([C@@H]2[C@H]5O)N3[C@@H]1O | 382
OCCOCCN1CCN(C(c2ccccc2)c2ccc(Cl)cc2)CC1 (stereo not given) [HYDROXYZINE] | 390.2
CN(C)CCC=C1c2ccccc2COc2ccccc21 [DOXEPIN] | 419.8

* * *

- Organism: Rattus norvegicus
- methodSummary: Open TG-GATES - Regimen: Daily Repeat
- Format: toxicity, organism-based, Sprague-Dawley
- Set-up: regimen Daily Repeat, gender Male, age 6 weeks
- measurementContext: in vivo, po, 0 mg/kg, […], route gavage, dose level Control, time 28 day
Items are presented alongside their recorded TERMINAL_BW.
quantity: TERMINAL_BW (g)

compound | numericReadout
ClC(Cl)(Cl)Cl [CARBON TETRACHLORIDE] | 389
CCCCc1oc2ccccc2c1C(=O)c1cc(I)c(OCCN(CC)CC)c(I)c1 | 382
CC1=C(CC(=O)O)c2cc(F)ccc2/C1=C\c1ccc([S+](C)[O-])cc1 (stereo unspecified) | 383.5
CCc1oc2ccccc2c1C(=O)c1cc(Br)c(O)c(Br)c1 | 382.2
CCC1(c2ccccc2)C(=O)NC(=O)NC1=O | 396.2
CN(C)C(=N)N=C(N)N | 386.6

* * *

- Species on record: Rattus norvegicus
- methodSummary: Open TG-GATES - Regimen: Single
- Type: toxicity, organism-based, Sprague-Dawley
- Parameters: regimen Single, gender Male, age 6 weeks
- measurementContext: in vivo, po, 0 mg/kg, 3 h, tissue Plasma, route gavage, dose level Control
Record t whenever ALT is at 40 IU/L or higher; record f when lower.

compound | qualitativeLabel
ClC(Cl)(Cl)Cl [CARBON TETRACHLORIDE] | f
CC1=C(CC(=O)O)c2cc(F)ccc2/C1=C\c1ccc([S+](C)[O-])cc1 (stereo not given) | t
CN(C)CCC=C1c2ccccc2COc2ccccc21 [DOXEPIN] | t
CCc1oc2ccccc2c1C(=O)c1cc(Br)c(O)c(Br)c1 | f
CC(C)N(CCC(C(N)=O)(c1ccccc1)c1ccccn1)C(C)C (stereo not given) [DISOPYRAMIDE] | t
CN(C)C(=N)N=C(N)N | t
CCC1(c2ccccc2)C(=O)NC(=O)NC1=O | f
O=NN(CCCl)C(=O)NC1CCCCC1 | f
CC[C@H]1[C@@H]2C[C@H]3[C@@H]4N(C)c5ccccc5[C@]45C[C@@H]([C@@H]2[C@H]5O)N3[C@@H]1O | f

* * *

- Organism: Rattus norvegicus
- methodSummary: Open TG-GATES - Regimen: Single
- Assay type: toxicity, organism-based, Sprague-Dawley
- Design: regimen Single, gender Male, age 6 weeks
- measurementContext: in vivo, po, 0 mg/kg, 3 h, tissue Plasma, route gavage, dose level Control
quantity: PL (mg/dL)

compound | quantity | unitInfo | numericReadout
CC[C@H]1[C@@H]2C[C@H]3[C@@H]4N(C)c5ccccc5[C@]45C[C@@H]([C@@H]2[C@H]5O)N3[C@@H]1O [AJMALINE] | PL | mg/dL | 149
CN(C)CCC=C1c2ccccc2COc2ccccc21 [DOXEPIN] | PL | mg/dL | 140.8
OCCOCCN1CCN(C(c2ccccc2)c2ccc(Cl)cc2)CC1 (stereo not given) [HYDROXYZINE] | PL | mg/dL | 138.6
ClC(Cl)(Cl)Cl [CARBON TETRACHLORIDE] | PL | mg/dL | 179.8
CC(C)N(CCC(C(N)=O)(c1ccccc1)c1ccccn1)C(C)C (stereo not given) [DISOPYRAMIDE] | PL | mg/dL | 122.6
CC1=C(CC(=O)O)c2cc(F)ccc2/C1=C\c1ccc([S+](C)[O-])cc1 (stereo not given) | PL | mg/dL | 150.6
CCc1oc2ccccc2c1C(=O)c1cc(Br)c(O)c(Br)c1 [BENZBROMARONE] | PL | mg/dL | 143.6
CCC1(c2ccccc2)C(=O)NC(=O)NC1=O [PHENOBARBITAL] | PL | mg/dL | 140.4
O=NN(CCCl)C(=O)NC1CCCCC1 [LOMUSTINE] | PL | mg/dL | 134.4
CN(C)C(=N)N=C(N)N [METFORMIN] | PL | mg/dL | 136.6

* * *

- Organism: Rattus norvegicus
- methodSummary: Open TG-GATES - Regimen: Daily Repeat
- Format: toxicity, organism-based, Sprague-Dawley
- Set-up: regimen Daily Repeat, gender Male, age 6 weeks
- measurementContext: in vivo, po, 0 mg/kg, […], tissue Plasma, route gavage, dose level Control, time 28 day
quantity: IP (mg/dL)

molecule | numericReadout
OCCOCCN1CCN(C(c2ccccc2)c2ccc(Cl)cc2)CC1 (stereo not given) [HYDROXYZINE] | 6.6
ClC(Cl)(Cl)Cl [CARBON TETRACHLORIDE] | 6.9
CCC1(c2ccccc2)C(=O)NC(=O)NC1=O | 8
CC[C@H]1[C@@H]2C[C@H]3[C@@H]4N(C)c5ccccc5[C@]45C[C@@H]([C@@H]2[C@H]5O)N3[C@@H]1O | 6.3
CN(C)C(=N)N=C(N)N | 6.6
CC1=C(CC(=O)O)c2cc(F)ccc2/C1=C\c1ccc([S+](C)[O-])cc1 (stereo not given) | 6.5
CN(C)CCC=C1c2ccccc2COc2ccccc21 [DOXEPIN] | 6.3
CC(C)N(CCC(C(N)=O)(c1ccccc1)c1ccccn1)C(C)C (stereo not given) [DISOPYRAMIDE] | 6.8
CCc1oc2ccccc2c1C(=O)c1cc(Br)c(O)c(Br)c1 | 6.5
O=NN(CCCl)C(=O)NC1CCCCC1 | 6.3

* * *

- Organism: Rattus norvegicus
- methodSummary: Open TG-GATES - Regimen: Daily Repeat
- Format: toxicity, organism-based, Sprague-Dawley
- Set-up: regimen Daily Repeat, gender Male, age 6 weeks
- measurementContext: in vivo, po, 0 mg/kg, […], tissue Plasma, route gavage, dose level Control, time 28 day

compound | unitInfo | ALT
CN(C)C(=N)N=C(N)N | IU/L | 41.8
CCC1(c2ccccc2)C(=O)NC(=O)NC1=O | IU/L | 29.6
OCCOCCN1CCN(C(c2ccccc2)c2ccc(Cl)cc2)CC1 (stereo unspecified) [HYDROXYZINE] | IU/L | 36
CC1=C(CC(=O)O)c2cc(F)ccc2/C1=C\c1ccc([S+](C)[O-])cc1 (stereo unspecified) | IU/L | 35.8
CCCCc1oc2ccccc2c1C(=O)c1cc(I)c(OCCN(CC)CC)c(I)c1 | IU/L | 37.6
CN(C)CCC=C1c2ccccc2COc2ccccc21 [DOXEPIN] | IU/L | 43.6
CC[C@H]1[C@@H]2C[C@H]3[C@@H]4N(C)c5ccccc5[C@]45C[C@@H]([C@@H]2[C@H]5O)N3[C@@H]1O | IU/L | 29.8
O=NN(CCCl)C(=O)NC1CCCCC1 | IU/L | 32.2
CCc1oc2ccccc2c1C(=O)c1cc(Br)c(O)c(Br)c1 | IU/L | 28.2
CC(C)N(CCC(C(N)=O)(c1ccccc1)c1ccccn1)C(C)C (stereo unspecified) [DISOPYRAMIDE] | IU/L | 36.8
ClC(Cl)(Cl)Cl [CARBON TETRACHLORIDE] | IU/L | 31.2

* * *

Items are presented alongside their recorded WBC.
- Organism: Rattus norvegicus
- methodSummary: Open TG-GATES - Regimen: Single
- Assay type: toxicity, organism-based, Sprague-Dawley
- Parameters: regimen Single, gender Male, age 6 weeks
- measurementContext: in vivo, po, 0 mg/kg, 6 h, tissue Blood, route gavage, dose level Control
quantity: WBC (x10_2/uL)

molecule | quantity | numericReadout
CN(C)C(=N)N=C(N)N [METFORMIN] | WBC | 92.1
OCCOCCN1CCN(C(c2ccccc2)c2ccc(Cl)cc2)CC1 (stereo not given) [HYDROXYZINE] | WBC | 60.3
CC(C)N(CCC(C(N)=O)(c1ccccc1)c1ccccn1)C(C)C (stereo not given) [DISOPYRAMIDE] | WBC | 110.6
CCC1(c2ccccc2)C(=O)NC(=O)NC1=O [PHENOBARBITAL] | WBC | 105
CN(C)CCC=C1c2ccccc2COc2ccccc21 [DOXEPIN] | WBC | 110.1
CC[C@H]1[C@@H]2C[C@H]3[C@@H]4N(C)c5ccccc5[C@]45C[C@@H]([C@@H]2[C@H]5O)N3[C@@H]1O [AJMALINE] | WBC | 102.3
O=NN(CCCl)C(=O)NC1CCCCC1 [LOMUSTINE] | WBC | 71.6
CCc1oc2ccccc2c1C(=O)c1cc(Br)c(O)c(Br)c1 [BENZBROMARONE] | WBC | 125.2
CC1=C(CC(=O)O)c2cc(F)ccc2/C1=C\c1ccc([S+](C)[O-])cc1 (stereo not given) | WBC | 78.4
ClC(Cl)(Cl)Cl [CARBON TETRACHLORIDE] | WBC | 98.9

Cited source: ChEMBL document CHEMBL3885861
